TEST_METHOD_NOTES: in vivo
EXPERIMENTAL_PARAMETERS: ICR, mouse, plasma, iv, 1 mg/kg
ENDPOINT_LABEL: AUC(0-inf) (ng·h/mL)

- CC(C)C[C@H](NC(=O)[C@H](Cc1ccccc1)NC(=O)c1cnccn1)B(O)O [Free BORT, bortezomib]: 469

----------
TEST_METHOD_NOTES: in vivo
EXPERIMENTAL_PARAMETERS: ICR, mouse, plasma, iv, 1 mg/kg
ENDPOINT_LABEL: clearance (mL/min/kg)

- CC(C)C[C@H](NC(=O)[C@H](Cc1ccccc1)NC(=O)c1cnccn1)B(O)O [Free BORT, bortezomib]: 25.2

----------
TEST_METHOD_NOTES: in vivo
EXPERIMENTAL_PARAMETERS: ICR, mouse, plasma, iv, 1 mg/kg
ENDPOINT_LABEL: Cmax (ng/mL)

* CC(C)C[C@H](NC(=O)[C@H](Cc1ccccc1)NC(=O)c1cnccn1)B(O)O [Free BORT, bortezomib] | 758

----------
Test system: K562 single tumor cells
TEST_METHOD_NOTES: Chemosensitization of single tumor cells to doxorubicin, MTT assay
Type: cell-based
EXPERIMENTAL_PARAMETERS: DOX alone (no BORT), 48 hours, mean ±SD, n=6
pIC50: −log10 of the molar value.
ENDPOINT_LABEL: pIC50

• COc1cccc2c1C(=O)c1c(O)c3c(c(O)c1C2=O)C[C@@](O)(C(=O)CO)C[C@@H]3O[C@H]1C[C@H](N)[C@H](O)[C@H](C)O1 [DOX, doxorubicin] = 4.77

Origin of the recorded values: paper PMC5095007
